- assay procedure: Single dose PK in patients with narcolepsy (Cohorts 5, 6 and 7), plasma
- Type: in vivo, human
- condition notes: human, plasma, intravenous, 44.8 mg, Cmpd A 44.8 mg; Median; Cohort 5, 6, 7; read-out: AUC24
- Source text: […]
endpoint name: AUC (ng·h/mL)

| input smiles | observed |
| --- | --- |
| COC(=O)N1CCC[C@H](NS(C)(=O)=O)[C@@H]1CO[C@H]1CC[C@@H](c2ccccc2)CC1 | 919 |

###

- assay procedure: Single dose PK in healthy subjects (Cohorts 1, 2, S1 and S2), plasma
- Type: in vivo, human
- condition notes: human, plasma, intravenous, 56 mg; 0.5 hr; read-out: Plasma concentration, Minimum

| compound | display unit | concentration at 0.5 h |
| --- | --- | --- |
| COC(=O)N1CCC[C@H](NS(C)(=O)=O)[C@@H]1CO[C@H]1CC[C@@H](c2ccccc2)CC1 [Compound A] | ng/mL | 64.4 |

###

- assay procedure: Single dose PK in healthy subjects (Cohorts 1, 2, S1 and S2), plasma
- Assay type: in vivo, human
- condition notes: human, plasma, intravenous, 14 mg; 6 hr; read-out: Plasma concentration, Minimum

| input smiles | display unit | concentration at 6 h |
| --- | --- | --- |
| COC(=O)N1CCC[C@H](NS(C)(=O)=O)[C@@H]1CO[C@H]1CC[C@@H](c2ccccc2)CC1 | ng/mL | 23.1 |

###

- assay procedure: Single dose PK in healthy subjects (Cohorts 1, 2, S1 and S2), plasma
- Assay type: in vivo, human
- condition notes: human, plasma, intravenous, 28 mg; 0.5 hr; read-out: Plasma concentration, Q3

| input smiles | concentration at 0.5 h, ng/mL |
| --- | --- |
| COC(=O)N1CCC[C@H](NS(C)(=O)=O)[C@@H]1CO[C@H]1CC[C@@H](c2ccccc2)CC1 | 42.6 |

###

- assay procedure: Single dose PK in healthy subjects (Cohorts 1, 2, S1 and S2), plasma
- Assay type: in vivo, human
- condition notes: human, plasma, intravenous, 56 mg; 4 hr; read-out: Plasma concentration, Minimum
endpoint name: concentration at 4 hr (ng/mL)

| compound | observed |
| --- | --- |
| COC(=O)N1CCC[C@H](NS(C)(=O)=O)[C@@H]1CO[C@H]1CC[C@@H](c2ccccc2)CC1 [Compound A] | 107 |

###

- assay procedure: Single dose PK in healthy subjects (Cohorts 1, 2, S1 and S2), plasma
- Type: in vivo, human
- condition notes: human, plasma, intravenous, 134.4 mg; 3 hr; read-out: Plasma concentration, Median
endpoint name: concentration at 3 h (ng/mL)

| input smiles | endpoint name | observed |
| --- | --- | --- |
| COC(=O)N1CCC[C@H](NS(C)(=O)=O)[C@@H]1CO[C@H]1CC[C@@H](c2ccccc2)CC1 | concentration at 3 h | 278 |

###

- assay procedure: Single dose PK in healthy subjects (Cohorts 1, 2, S1 and S2), plasma
- Type: in vivo, human
- condition notes: human, plasma, intravenous, 7 mg; 8 hr; read-out: Plasma concentration, Minimum
endpoint name: concentration at 8 h

| compound | observed |
| --- | --- |
| COC(=O)N1CCC[C@H](NS(C)(=O)=O)[C@@H]1CO[C@H]1CC[C@@H](c2ccccc2)CC1 [Compound A] | 9.5 ng/mL |

###

- assay procedure: Single dose PK in healthy subjects (Cohorts 1, 2, S1 and S2), plasma
- Format: in vivo, human
- condition notes: human, plasma, intravenous, 240 mg; 9 hr; read-out: Plasma concentration, Q1

| input smiles | concentration at 9 hr (ng/mL) |
| --- | --- |
| COC(=O)N1CCC[C@H](NS(C)(=O)=O)[C@@H]1CO[C@H]1CC[C@@H](c2ccccc2)CC1 | 452 |

###

- assay procedure: Single dose PK in healthy subjects (Cohorts 1, 2, S1 and S2), plasma
- Type: in vivo, human
- condition notes: human, plasma, intravenous, 28 mg; 1.5 hr; read-out: Plasma concentration, Q1

| compound | concentration at 1.5 hr |
| --- | --- |
| COC(=O)N1CCC[C@H](NS(C)(=O)=O)[C@@H]1CO[C@H]1CC[C@@H](c2ccccc2)CC1 [Compound A] | 44.4 ng/mL |

###

- assay procedure: Single dose PK in healthy subjects (Cohorts 1, 2, S1 and S2), plasma
- Assay type: in vivo, human
- condition notes: human, plasma, intravenous, 134.4 mg; 0.5 hr; read-out: Plasma concentration, Q3
- Text: […]

| input smiles | display unit | concentration at 0.5 h |
| --- | --- | --- |
| COC(=O)N1CCC[C@H](NS(C)(=O)=O)[C@@H]1CO[C@H]1CC[C@@H](c2ccccc2)CC1 | ng/mL | 169 |

###

- assay procedure: Single dose PK in healthy subjects (Cohorts 1, 2, S1 and S2), plasma
- Assay type: in vivo, human
- condition notes: human, plasma, iv, 112 mg, 112 mg single IV infusion, healthy subjects; read-out: AUC24 Median
endpoint name: AUC (ng·h/mL)

| molecule | observed |
| --- | --- |
| COC(=O)N1CCC[C@H](NS(C)(=O)=O)[C@@H]1CO[C@H]1CC[C@@H](c2ccccc2)CC1 [Compound A] | 2130 |

###

- assay procedure: Single dose PK in healthy subjects (Cohorts 1, 2, S1 and S2), plasma
- Format: in vivo, human
- condition notes: human, plasma, intravenous, 7 mg; 1.5 hr; read-out: Plasma concentration, Maximum
endpoint name: concentration at 1.5 h (ng/mL)

| input smiles | display unit | observed |
| --- | --- | --- |
| COC(=O)N1CCC[C@H](NS(C)(=O)=O)[C@@H]1CO[C@H]1CC[C@@H](c2ccccc2)CC1 | ng/mL | 17.6 |

###

- assay procedure: Single dose PK in healthy subjects (Cohorts 1, 2, S1 and S2), plasma
- Assay type: in vivo, human
- condition notes: human, plasma, intravenous, 14 mg; 1 hr; read-out: Plasma concentration, Q3

| compound | concentration at 1 h (ng/mL) |
| --- | --- |
| COC(=O)N1CCC[C@H](NS(C)(=O)=O)[C@@H]1CO[C@H]1CC[C@@H](c2ccccc2)CC1 [Compound A] | 29.7 |

###

- assay procedure: Single dose PK in healthy subjects (Cohorts 1, 2, S1 and S2), plasma
- Type: in vivo, human
- condition notes: human, plasma, intravenous, 14 mg; 6 hr; read-out: Plasma concentration, Q1

| input smiles | concentration at 6 h [ng/mL] |
| --- | --- |
| COC(=O)N1CCC[C@H](NS(C)(=O)=O)[C@@H]1CO[C@H]1CC[C@@H](c2ccccc2)CC1 | 23.9 |

###

- assay procedure: Single dose PK in healthy subjects (Cohorts 1, 2, S1 and S2), plasma
- Type: in vivo, human
- condition notes: human, plasma, intravenous, 14 mg; 4 hr; read-out: Plasma concentration, Minimum
endpoint name: concentration at 4 h (ng/mL)

| compound | observed |
| --- | --- |
| COC(=O)N1CCC[C@H](NS(C)(=O)=O)[C@@H]1CO[C@H]1CC[C@@H](c2ccccc2)CC1 [Compound A] | 31 |

###

- assay procedure: Single dose PK in healthy subjects (Cohorts 1, 2, S1 and S2), plasma
- Format: in vivo, human
- condition notes: human, plasma, iv, 180 mg, 180 mg single IV infusion, healthy subjects; read-out: AUClast Mean
endpoint name: AUC(0-t)

| input smiles | observed |
| --- | --- |
| COC(=O)N1CCC[C@H](NS(C)(=O)=O)[C@@H]1CO[C@H]1CC[C@@H](c2ccccc2)CC1 | 3000 ng·h/mL |

###

- assay procedure: Multiple-dose PK of intravenous Compound A in patients with NT1 (Cohorts B1, B2), plasma
- Type: in vivo, human
- condition notes: human, plasma, intravenous, 11 mg; Day 1; read-out: AUCtau, Geo Mean
endpoint name: AUC (ng·h/mL)

| input smiles | display unit | observed |
| --- | --- | --- |
| COC(=O)N1CCC[C@H](NS(C)(=O)=O)[C@@H]1CO[C@H]1CC[C@@H](c2ccccc2)CC1 | ng·h/mL | 164 |

###

- assay procedure: Single dose PK in patients with narcolepsy (Cohorts 5, 6 and 7), plasma
- Assay type: in vivo, human
- condition notes: human, plasma, intravenous, 44.8 mg, Cmpd A 44.8 mg; Mean; Cohort 5, 6, 7

| molecule | Tmax [h] |
| --- | --- |
| COC(=O)N1CCC[C@H](NS(C)(=O)=O)[C@@H]1CO[C@H]1CC[C@@H](c2ccccc2)CC1 [Compound A] | 6.5 |

###

- assay procedure: Single dose PK in healthy subjects (Cohorts 1, 2, S1 and S2), plasma
- Format: in vivo, human
- condition notes: human, plasma, intravenous, 112 mg; 4 hr; read-out: Plasma concentration, Minimum

| input smiles | concentration at 4 h, ng/mL |
| --- | --- |
| COC(=O)N1CCC[C@H](NS(C)(=O)=O)[C@@H]1CO[C@H]1CC[C@@H](c2ccccc2)CC1 | 154 |
